- System: IL-10
- assay_explanation: Measurement of IL-10 increase rate (LPS-induced inflammation in mice, serum IL-10 by ELISA)
- Assay type: in vivo
- test_settings: Mus musculus, 2 h, oral 100 mg/kg in 0.5% methyl cellulose, LPS 0.4 mg/kg i.p. one hour later, serum taken one hour after LPS, % control ratio vs 0.5% methyl cellulose group, read-out: IL10 Increase Rate (%)
Kindly return Yes if reported response vs control in vivo at 100 mg/kg is no lower than 200%; return No if it is lower.

Please review the following examples before continuing.
CN(C)C12CCC(c3cn([C@H]4CC[C@H](c5nnc(COc6cccc(C(F)(F)F)c6)n5C)CC4)nn3)(CC1)OC2 [Example 9] ... No
Cn1c(COc2cccc(C(F)(F)F)c2)nnc1[C@H]1CC[C@H](n2cc([C@H]3CC[C@H](N4CCC4)CC3)cn2)CC1 [Example 17] ... Yes
CN1CCC(c2cn(-c3ccc(-c4nnc(COc5cccc(C(F)(F)F)c5)n4C)cc3)cn2)CC1 [Example 18] ... No

Kindly review the next compound as well.
# bool: response vs control in vivo at 100 mg/kg of CN(C)C12CC(c3cn([C@H]4CC[C@H](c5nnc(COc6cccc(C(F)(F)F)c6)n5C)CC4)nn3)(C1)C2 [Example 12] >= 200%
No
